Measured values drawn from patent US11679108B2 for this set.

- assayed-target: ATX in human plasma (Homo sapiens)
- Construct: blank plasma was derived from at least 6 individual people
- test-details: Analysis in vitro: detection of LPA in human plasma for screening activity (LPA 18:2 by LC/MS/MS)
- assay-conditions: incubated 2 hours at 37° C., LPA 18:2 detected by LC/MS/MS
- Description: Analysis In Vitro: Detection of LPA in Human Plasma for Screening Activity Principle: LPC in plasma being used as a substrate, the produced LPA 18:2 (LPA 17:0 as an internal standard) is detected by LC/MS/MS quantitative analysis. […] Experiment procedures: blank plasma was derived from at least 6 individual people. […] LPA 18:2 was detected by LC/MS/MS and IC50 values were analyzed and calculated by software, seeing Table 2.
Parameter: IC50. Scope: all listed entries.
readout: IC50

- molecule: "CCc1nc2sc(N3CCN(CC(=O)N4CC(O)C4)[C@@H](C)C3)nn2c1N(C)c1nc(-c2ccc(F)cc2)c(C#N)s1"
  assayed-target: "ATX in human plasma (Homo sapiens)"
  measurement: "0.01 to 100 nM"
- molecule: "CCc1nc2sc(N3C[C@H](C)N(CC(=O)N4CC(O)C4)[C@@H](C)C3)nn2c1N(C)c1nc(-c2ccc(F)cc2)c(C#N)s1 (relative stereo)"
  assayed-target: "ATX in human plasma (Homo sapiens)"
  measurement: "100 to 500 nM"
- molecule: "CCc1nc2sc(C3CCN(CC(=O)N4CC(O)C4)CC3)nn2c1N(C)c1nc(-c2ccc(F)cc2)c(C#N)s1"
  assayed-target: "ATX in human plasma (Homo sapiens)"
  measurement: "0.01 to 100 nM"
- molecule: "CCc1nc2sc(N3CC[C@@H](N(C)CC(=O)N4CC(O)C4)C3)nn2c1N(C)c1nc(-c2ccc(F)cc2)c(C#N)s1"
  assayed-target: "ATX in human plasma (Homo sapiens)"
  measurement: "0.01 to 100 nM"
- molecule: "CCc1nc2sc(N3CC4CC(C3)N4CC(=O)N3CC(O)C3)nn2c1N(C)c1nc(-c2ccc(F)cc2)c(C#N)s1"
  assayed-target: "ATX in human plasma (Homo sapiens)"
  measurement: "100 to 500 nM"
- molecule: "CCc1nc2sc(N3CC4CCC(C3)N4CC(=O)N3CC(O)C3)nn2c1N(C)c1nc(-c2ccc(F)cc2)c(C#N)s1"
  assayed-target: "ATX in human plasma (Homo sapiens)"
  measurement: "100 to 500 nM"
